System: MS2 coat protein
Assay: apparent KD of MS2 coat protein; designed switch direction (-1 OFF switch, 1 ON switch): -1; higher = weaker reporter binding
Details: input ligand: none
Would you mind labelling by apparent KD of MS2 coat protein? At or over 40 nM is Yes, under is No.

Illustrative cases are given below, each with its answer.
Construct Sequence	Cat
CAUGGUUAACGAUUAUUCAACAUGAGGAUCACCCAUGUCUCUUUUUCUUUUUGCUCGUCUUAUCCUCCUUUGUUCAC [JR_STOV1_v2_Sub0102] (Eterna round: R97, puzzle: Sensor, turn-off variant 1)	Yes
AAGAGGAAUAUAGGAUAUGAGGCUGAGACGGCGUCAGAAGGGUAUCCAGAGUUACAUGAGGAUCACCCAUGUGGUGAUUUCUAA [Exclusion NG 1 V2 1] (Eterna round: R96, puzzle: Exclusion NG 1)	Yes
AAAUCGGCAGGAUAUACAUGAGGAUCACCCAUGUAAAUUUUUCGUUUAACUUGAAUGUGUAGAAGGGCCAUUAA [Ex3 #64] (Eterna round: R97, puzzle: Exclusion 3)	No

**Query** Check this sequence for apparent KD of MS2 coat protein at or above 40 nM: ACAUGAGGAUCACCCAUGUGAAAACAAUGGCUGACUAAGAGAUAGGAUAUAUGUGCAUAUCAAACAUAGAAGGGUCAUUACUGG [Deportation 88 - Jieux - Exclusion NG 3] (Eterna round: R96, puzzle: Exclusion NG 3)
**Result** No

**Query** Continue with UAGUUACAUGAGGAUCACCCAUGUGAGGAUAUGAGUCAGUCACGGUGACGUGGCUGACUCAGAAGGCACAAAGG [Mat - Exclusion 1 - JL Mod - D38] (Eterna round: R97, puzzle: Exclusion 1)
**Result** Yes

**Query** Continue with UCCUGGCGAGGAUAUACAAAGAUUUUUUCGUUUUGUCUCGAACAUGAGGAUCACCCAUGUAGAAGGUGCUGCUG [JR_Ex2_Sub014] (Eterna round: R97, puzzle: Exclusion 2)
**Result** Yes

**Query** Continue with GUGCCGCGAGGAUAUACAGACGGGUCCAAAACGUGUCUCGGACUUGAGGAUCACCCAAGUAGAAGGCGUUUCAG [salish99_ex2_r4_620] (Eterna round: R97, puzzle: Exclusion 2)
**Result** No

**Query** Continue with AAGACUAGAGGAUAUACAUGAGGAUCACCCAUGUAACUGUCAGGUGACUGACGGAAAUGUAGAAGGCUAGUCAA [Mat - Exclusion 3 - JL mod - D81] (Eterna round: R96, puzzle: Exclusion 3)
**Result** No

**Query** Continue with UUCGUGCAGCUUUGCUGUACGCGUACAUGAGGAUCACCCAUGUAGGAUAUGGUAGGCUUUGCUUACUAGAAGGAUAUGGUGAGC [JL EXNG3 1.33] (Eterna round: R96, puzzle: Exclusion NG 3)
**Result** No

**Query** Continue with GGUUGGCGAGGAUAUACAUGAGGAUCACCCAUGUGAGAGAAAAAAGUGAGCAAGAAAAGUAGAAGGCGCUGACG [salish99_ex3_r3_030] (Eterna round: R96, puzzle: Exclusion 3)
**Result** Yes

**Query** Continue with ACAUGUUAUGUAGGAUAUUGGACACAUGAGGAUCACCCAUGUAACCGGAGGCUUUACUAUGAGUUCGAGAAGGGUAUGAACAUG [Ex NG2 #67] (Eterna round: R96, puzzle: Exclusion NG 2)
**Result** Yes

**Query** Continue with UAUUUAUAUGAAGGAUAUACUUAACAUGAGGAUCACCCAUGUGGUGUUGUGAGUGAGUGAGUUUAGUAGAAGGUCAAGUAUUUU [JMF's solution 53] (Eterna round: R96, puzzle: Exclusion NG 2)
**Result** Yes

**Query** Continue with GGGAAGAACCAACAAGCAAACAUGAGGAUCACCCAUGUAGUAAGAGAAAUUGAGGUGAUUCAGAGAGCUCGACUUAU [AK-miRNA-r3-7.1] (Eterna round: R97, puzzle: Sensor, turn-off variant 1)
**Result** Yes

**Query** Continue with AAAUAAAGGUAGGAUAUCGAUUUUAAUUAAUAUCGAGAAGGGUCAACAUGAGGAUCACCCAUGUCAGCAUGUAA [LRO-Excl6-01-Rocketman] (Eterna round: R97, puzzle: Exclusion 6)
**Result** Yes

**Query** Continue with UACAUGAGGAUCACCCAUGUUUUGUCGUGUAUGGUAUUUAUCUAGGAUAUCAUGUUAUUUAGUUAUGAGAAGGAGAAUAUUAAU [JMF's solution 81] (Eterna round: R96, puzzle: Exclusion NG 3)
**Result** No

Reference source: the supplement of paper PMC9170038
